# target_entity: A/Aichi/2/68 H3N2
# experimental_setup: read-out: Mean Ki(HAI)
No end group written: not given here.
assay_endpoint: Ki (µM)
Express it in µM; write the number only.

I would be grateful if you could share the reported Ki for KKKKFYGYDVFF-NH2 [SEQ ID NO:28] .
31.9

* * *

# target_entity: A/Panama/2007/1999 H3N2
# Format: cell-based, influenza A virus
# experimental_setup: read-out: Mean Ki(HAI)
No end group written: not given here.
assay_endpoint: Ki (nM)
Express it in nM; write the number only.

I would be grateful if you could share the reported Ki for KKKKFYGYDVFF-NH2 [SEQ ID NO:28] .
100
